# Test system: T47D
# TEST_PROTOCOL: NCI tumour cell line growth inhibition, 48 h
Activity calls are given as the source filed them. Rule as the data show it: active = GI50 up to about 1.1 µM and inactive = higher.
Outcome codes: active, inactive

{"COMPOUND": "O=c1[nH]c(=O)n(COCCOCc2ccccc2)cc1Nc1ccccc1", "ANSWER_LABEL": "inactive"}
{"COMPOUND": "COc1nc(C#CC2(O)CCCCC2)nc(OC)n1", "ANSWER_LABEL": "inactive"}
{"COMPOUND": "CCCc1nc(Cl)c(Cl)c(Cl)n1", "ANSWER_LABEL": "inactive"}
{"COMPOUND": "COC(=O)c1ccccc1C1CN=NC12Cc1cc(C)ccc1C2=O (configuration not stated)", "ANSWER_LABEL": "inactive"}
{"COMPOUND": "Clc1cccc(-c2nc3cccc4c3n2Cc2ncccc2-4)c1", "ANSWER_LABEL": "inactive"}
{"COMPOUND": "CC[C@](O)(CC(=O)O[C@H]1C(=O)O[C@@H]2C[C@H]3C(C)=CC(=O)[C@@H](O)[C@]3(C)[C@H]3[C@@]4(O)OC[C@]32[C@@H]1[C@@H](C)[C@H]4O)C(C)C", "ANSWER_LABEL": "active"}
{"COMPOUND": "O=C(O)C1OC1C(=O)O (configuration not stated)", "ANSWER_LABEL": "inactive"}
{"COMPOUND": "Cc1c(C(=O)O)n2c(C)nnc2c2ccccc12", "ANSWER_LABEL": "inactive"}
{"COMPOUND": "Cc1nc2c(nc1C)-c1c(c3c(n1Cc1ccccc1)C(=O)CCC3)C(=O)C2=O", "ANSWER_LABEL": "inactive"}
{"COMPOUND": "COc1cc(S(=O)(=O)Nc2ccc(-c3csc(N4C(=O)C(Cl)C4c4cccs4)n3)cc2)ccc1Cl (configuration not stated)", "ANSWER_LABEL": "inactive"}
{"COMPOUND": "C[N+]1(C)CC=C(N2CCOCC2)CC1", "ANSWER_LABEL": "inactive"}
{"COMPOUND": "Cc1cc(=O)oc2cc(OCc3c(F)cccc3Cl)ccc12", "ANSWER_LABEL": "inactive"}
{"COMPOUND": "Cc1nc(C)c(Cc2ccccc2)o1", "ANSWER_LABEL": "inactive"}
{"COMPOUND": "NC(C(F)(F)F)(C(F)(F)F)P(=O)(Cc1ccccc1)Cc1ccccc1", "ANSWER_LABEL": "inactive"}
{"COMPOUND": "Cn1c(-c2ccccc2)cc(-c2ccc3c(c2)OCO3)c1-c1ccsc1", "ANSWER_LABEL": "inactive"}
{"COMPOUND": "O=C1CCCSCCCC(=O)CCCSCCC1", "ANSWER_LABEL": "inactive"}
{"COMPOUND": "Cc1cc(OCc2nc(N)nc(N)c2-c2ccc(Cl)c(Cl)c2)ccc1[N+](=O)[O-]", "ANSWER_LABEL": "inactive"}
{"COMPOUND": "CSc1nc(=S)[nH]c2[nH]nc(C)c12", "ANSWER_LABEL": "inactive"}
{"COMPOUND": "Oc1cc2c(cc1C(c1ccc3c(c1)OCO3)N1CCN(C(c3ccc4c(c3)OCO4)c3cc4c(cc3O)OCO4)CC1)OCO2 (configuration not stated)", "ANSWER_LABEL": "inactive"}
{"COMPOUND": "O=C(CC(C(=O)c1ccsc1)c1ccccc1)c1cccs1 (configuration not stated)", "ANSWER_LABEL": "inactive"}
{"COMPOUND": "C[N+]1(C)CCCC(C#N)(c2ccccc2)CC1 (configuration not stated)", "ANSWER_LABEL": "inactive"}
{"COMPOUND": "N#CCCN(CCC#N)c1ccc(/C=C2\\N=C(c3ccccc3)N(NC(N)=S)C2=O)cc1", "ANSWER_LABEL": "inactive"}
